Below: a set of entries, each annotated with reported inhibition.
molecular target: Rho-associated protein kinase 2 (Homo sapiens); assay: Inhibition of ROCK2 at 10 uM by HTRF assay relative to control
The response must be a number in % with no trailing unit.

> print(dat)
                                 cpd.smiles  data.value
1  Cc1cccc(N(C)c2cc(Nc3cccc(C(=O)NCCCn4ccnc4)c3)ncn2)c1           0
2  CN(CCc1ccccn1)C(=O)c1cccc(Nc2nccc(Nc3ccc4ncsc4c3)n2)c1           7
3  Cc1cccc(Nc2ncnc3c2CN(C(=O)c2ccc(N(C)C)c4ccccc24)CC3)c1           1
4  Nc1nc(Nc2ccccc2)cc(N2CCC(C(=O)NCCc3ccccn3)CC2)n1           0

Next, consider the following compound.
Query :: # query: inhibition of entry `Cc1cccc(N(C)c2cc(Nc3cccc(C(=O)NCc4ccncc4)c3)ncn2)c1`
Result :: 0

====

Molecular target: Serine/threonine-protein kinase Chk1 (Homo sapiens)
Sequence (whole entry): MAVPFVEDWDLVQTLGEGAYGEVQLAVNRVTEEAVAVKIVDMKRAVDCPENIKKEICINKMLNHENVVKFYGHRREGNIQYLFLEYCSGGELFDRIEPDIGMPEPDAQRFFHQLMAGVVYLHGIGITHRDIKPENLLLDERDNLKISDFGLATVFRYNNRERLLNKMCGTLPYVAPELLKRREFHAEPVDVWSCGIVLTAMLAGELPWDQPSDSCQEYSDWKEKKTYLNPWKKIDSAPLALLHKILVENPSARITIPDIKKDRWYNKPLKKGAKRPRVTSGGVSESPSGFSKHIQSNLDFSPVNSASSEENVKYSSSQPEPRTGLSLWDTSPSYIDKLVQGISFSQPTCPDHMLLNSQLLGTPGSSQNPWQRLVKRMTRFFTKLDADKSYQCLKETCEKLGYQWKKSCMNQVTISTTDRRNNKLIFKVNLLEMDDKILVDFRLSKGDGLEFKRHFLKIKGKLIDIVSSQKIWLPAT
Assay: Inhibition of CHK1 at 10 uM by HTRF assay relative to control
endpoint name: inhibition (%)
Answer format: numeric, % implied, no suffix.

> print(dat)
                                   compound  endpoint.name  result.units  data.value
1  CN(CCc1ccccn1)C(=O)[C@@H]1CCCN1c1nccc(Nc2ccccc2)n1     inhibition             %           1
2  Cc1cccc(Oc2ccnc(N3CCC[C@H]3C(=O)NCCCn3ccnc3)n2)c1     inhibition             %           3

Query :: Suppose we examine the compound `COC[C@@H]1CCCN1C(=O)[C@@H]1CCCN1c1cc(Nc2cccc(OC)c2)nc(N)n1` ; what inhibition value has been reported?
Result :: 1

Query :: # lookup: inhibition of `Nc1nc(N2CCOCC2)cc(N2CCC(C(=O)NCc3cccs3)CC2)n1`
Result :: 1

Query :: Value lookup for inhibition; key = `O=C(CN1CCN(c2ncnc3c2CN(Cc2ccccc2)CC3)CC1)Nc1cc(F)ccc1F`
Result :: 0

Query :: Consider the compound shown here: `COc1ccc(-c2noc(CN3CCN(c4cc(Nc5cccc(O)c5)ncn4)CC3)n2)cc1` What is its recorded inhibition?
Result :: 2

Query :: For the compound shown here, `Cc1cccc(N(C)c2cc(Nc3cccc(C(=O)NCCCn4ccnc4)c3)ncn2)c1` , give the reported inhibition.
Result :: 0

Query :: Given `CC(=O)N1CCN(C(=O)c2cccc(Nc3cc(N(C)c4cccc(C)c4)ncn3)c2)CC1` , state its recorded inhibition.
Result :: 2

Query :: Entry `CC(=O)CCCCC(=O)N1CCN(c2nccc(Oc3cccc(C)c3)n2)CC1` : reported inhibition = ?
Result :: 4

Query :: For the compound shown here, `CN(C)CC(C)(C)CNC(=O)[C@@H]1CCCN1c1nccc(Nc2ccccc2)n1` , give the reported inhibition.
Result :: 6

Query :: Returns the measured inhibition for the input compound. Input: `O=C(c1nc(SCc2ccc(Cl)cc2)n2ccccc12)N1CCN(c2ncnc3c2CN(Cc2ccccc2)CC3)CC1`
Result :: 5

Query :: Reported inhibition, compound `CN(CCc1ccccn1)C(=O)c1cccc(Nc2nccc(Nc3ccc4ncsc4c3)n2)c1` : ____
Result :: 0

Query :: Given the compound `CN(CCCn1ccnc1)C(=O)[C@@H]1CCCN1c1nccc(Nc2ccccc2)n1` , what is its reported inhibition?
Result :: 0

Query :: # get_value(readout='inhibition', item= `Cc1cccc(N(C)c2cc(Nc3ccc(CC(=O)Nc4ccc5ncsc5c4)cc3)ncn2)c1` )
Result :: 1

Query :: Bench note: what inhibition did `Nc1nc(Nc2ccccc2)cc(N2CCC(C(=O)NCCc3ccccn3)CC2)n1` show?
Result :: 0

Query :: Given Cc1cccc(Nc2cc(Nc3cccc(C(=O)N(CC(C)O)CC(C)O)c3)ncn2)c1 (stereo not given) , state its recorded inhibition.
Result :: 3

Query :: Quick check: inhibition of `O=C(NCc1ccncc1)c1cccc(Nc2cc(Nc3cccc(Br)c3)ncn2)c1` ?
Result :: 4

Query :: Please give the measured inhibition for this compound: `CN(C)CC(C)(C)CNC(=O)C1CCN(c2cc(N3CCOCC3)nc(N)n2)CC1`
Result :: 8

Query :: What does the data say about its inhibition? Entry: `Nc1nc(Nc2ccc3ncsc3c2)cc(N2CCC[C@H]2C(=O)NCCc2cccc(I)c2)n1`
Result :: 3

Query :: So what does the record say about inhibition for `Cc1cccc(N(C)c2cc(Nc3cccc(C(=O)N(CC(C)C)CC(C)C)c3)ncn2)c1` ?
Result :: 0

====

target: Rho-associated protein kinase 2 (Homo sapiens); experiment: Inhibition of ROCK2 at 10 uM by HTRF assay relative to control
inhibition listing for selected molecules.
Quote the value and follow it with the unit of measurement.

> print(dat)
                                 cpd.smiles  endpoint.name  data.value
1  Nc1nc(N2CCOCC2)cc(N2CCC(C(=O)NCCc3ccc(O)cc3)CC2)n1     inhibition          0%

Query :: Lookup: inhibition / Rho-associated protein kinase 2 (Homo sapiens) / `O=C(NCCc1ccc(O)cc1)c1cccc(Nc2nccc(Nc3ccc4ncsc4c3)n2)c1`
Result :: 11%

Query :: Request: inhibition, test system Rho-associated protein kinase 2 (Homo sapiens), entry `Cc1cccc(Nc2nccc(Nc3cccc(C(=O)NCc4ccc(N(C)C)cc4)c3)n2)c1`
Result :: 4%

Query :: Checklist item: inhibition tested on Rho-associated protein kinase 2 (Homo sapiens), entry `COc1ccc(NC(=O)Cc2ccc(Nc3cc(N(C)c4cccc(C)c4)ncn3)cc2)cn1` , value?
Result :: 0%

Query :: Lab note: need inhibition for `CC(=O)N1CCN(C(=O)c2cccc(Nc3cc(N(C)c4cccc(C)c4)ncn3)c2)CC1` on Rho-associated protein kinase 2 (Homo sapiens), anyone have it?
Result :: 0%

Query :: I'm curious: which inhibition was measured for `Clc1ccc2sc(CN3CCN(c4ncnc5c4CN(Cc4ccccc4)CC5)CC3)cc2c1` tested on Rho-associated protein kinase 2 (Homo sapiens)?
Result :: 0%

Query :: Form field - read-out: inhibition; system: Rho-associated protein kinase 2 (Homo sapiens); submitted item: `Cc1cccc(N(C)c2cc(Nc3cccc(C(=O)N(C)CCc4ccccn4)c3)ncn2)c1`
Result :: 0%

Query :: Return inhibition measured with Rho-associated protein kinase 2 (Homo sapiens) given this molecule: `CN(CCc1ccccn1)C(=O)[C@@H]1CCCN1c1nccc(Nc2ccccc2)n1`
Result :: 0%

Query :: # query: inhibition | item `COc1cccc(Nc2cc(N3CCC[C@H]3C(=O)NCCc3ccc(O)cc3)nc(N)n2)c1` | system: Rho-associated protein kinase 2 (Homo sapiens)
Result :: 0%

====

Below: a set of entries, each annotated with reported inhibition.
biological target: Serine/threonine-protein kinase Chk2 (Homo sapiens) (UniProt O96017); assay: Inhibition of CHK2 at 10 uM by HTRF assay relative to control
Sequence (O96017 whole entry): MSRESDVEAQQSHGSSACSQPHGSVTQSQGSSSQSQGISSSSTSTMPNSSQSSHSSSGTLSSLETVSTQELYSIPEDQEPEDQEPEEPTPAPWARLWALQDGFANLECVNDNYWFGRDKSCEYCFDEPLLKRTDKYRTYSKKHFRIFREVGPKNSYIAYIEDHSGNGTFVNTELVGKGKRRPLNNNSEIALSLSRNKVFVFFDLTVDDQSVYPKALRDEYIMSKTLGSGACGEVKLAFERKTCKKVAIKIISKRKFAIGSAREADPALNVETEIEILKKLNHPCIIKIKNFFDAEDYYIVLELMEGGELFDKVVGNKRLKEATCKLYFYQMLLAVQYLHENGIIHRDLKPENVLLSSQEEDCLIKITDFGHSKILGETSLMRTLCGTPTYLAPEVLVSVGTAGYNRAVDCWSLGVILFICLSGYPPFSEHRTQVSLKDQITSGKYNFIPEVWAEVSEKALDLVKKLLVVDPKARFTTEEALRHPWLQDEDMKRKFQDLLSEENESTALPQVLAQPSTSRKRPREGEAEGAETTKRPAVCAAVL
Only the number, expressed in %, is required.

Known inhibition results, listed for orientation:
> print(dat)
                                   molecule  endpoint.name  data.value
1  COc1cccc(Nc2cc(N3CCC[C@H]3C(=O)NCCc3ccc(O)cc3)nc(N)n2)c1     inhibition           0
2  O=C(c1nc(SCc2ccc(Cl)cc2)n2ccccc12)N1CCN(c2cc(Nc3cccc(Br)c3)ncn2)CC1     inhibition           6

Query :: # lookup: inhibition of `Cc1cccc(Nc2ncnc3c2CN(C(=O)c2ccc(N(C)C)c4ccccc24)CC3)c1`
Result :: 2

Query :: Which measured inhibition value corresponds to `Cc1cc(C(=O)N2CCN(c3ncnc4c3CN(Cc3ccccc3)CC4)CC2)c(C)n1C` ?
Result :: 2

====

target: Focal adhesion kinase 1 (Homo sapiens) (UniProt Q05397); assay: Inhibition of FAK at 10 uM by HTRF assay relative to control
Sequence (Q05397 2-1052 limits assumed): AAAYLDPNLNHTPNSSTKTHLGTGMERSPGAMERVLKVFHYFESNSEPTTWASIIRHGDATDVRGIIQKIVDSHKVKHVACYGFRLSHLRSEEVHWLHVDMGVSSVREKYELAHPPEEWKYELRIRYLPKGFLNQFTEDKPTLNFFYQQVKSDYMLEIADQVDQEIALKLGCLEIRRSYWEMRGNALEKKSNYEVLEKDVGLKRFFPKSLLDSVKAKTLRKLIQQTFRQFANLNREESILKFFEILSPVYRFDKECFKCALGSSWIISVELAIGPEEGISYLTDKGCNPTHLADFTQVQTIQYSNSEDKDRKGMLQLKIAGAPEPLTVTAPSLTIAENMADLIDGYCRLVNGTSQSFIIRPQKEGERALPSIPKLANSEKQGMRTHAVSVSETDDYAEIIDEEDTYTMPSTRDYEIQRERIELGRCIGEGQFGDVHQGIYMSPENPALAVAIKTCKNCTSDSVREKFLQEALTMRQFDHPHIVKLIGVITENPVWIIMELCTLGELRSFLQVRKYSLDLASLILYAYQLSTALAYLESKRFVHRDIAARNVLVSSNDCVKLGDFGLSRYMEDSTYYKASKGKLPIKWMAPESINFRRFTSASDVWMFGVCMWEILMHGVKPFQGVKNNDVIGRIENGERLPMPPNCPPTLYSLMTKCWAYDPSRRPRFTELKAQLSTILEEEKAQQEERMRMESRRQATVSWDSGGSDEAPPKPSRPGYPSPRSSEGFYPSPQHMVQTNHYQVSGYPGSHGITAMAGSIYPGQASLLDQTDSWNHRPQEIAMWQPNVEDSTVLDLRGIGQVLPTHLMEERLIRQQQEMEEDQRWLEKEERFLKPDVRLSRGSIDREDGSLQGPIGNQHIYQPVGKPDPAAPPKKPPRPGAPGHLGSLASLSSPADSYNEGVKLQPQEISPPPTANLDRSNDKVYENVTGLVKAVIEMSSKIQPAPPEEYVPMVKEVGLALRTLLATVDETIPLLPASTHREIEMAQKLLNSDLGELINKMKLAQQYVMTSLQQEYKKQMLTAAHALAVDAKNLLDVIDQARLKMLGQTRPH
Threshold rule: inhibition greater than or equal to 3% is met; below that, not met.

Query :: Evaluate `O=C(CN1CCN(c2ncnc3c2CN(Cc2ccccc2)CC3)CC1)Nc1cc(F)ccc1F` : inhibition at minimum 3%?
Result :: not met

Query :: Could you tell me if the measured inhibition of `CN(C)CC(C)(C)CNC(=O)c1cccc(Nc2nccc(Nc3ccc4ncsc4c3)n2)c1` reaches 3% or more?
Result :: met

Query :: Textbook exercise: given the entry `Cc1cccc(N(C)c2cc(Nc3cccc(C(=O)N(CC(C)C)CC(C)C)c3)ncn2)c1` , state whether its inhibition is greater than or equal to 3%.
Result :: not met
